# EXPERIMENTAL PROTOCOL: Cytotoxicity (CellTiter 96 Aqueous Non-Radioactive Cell Proliferation Assay)
# Assay type: cell-based
# SETTINGS: human, Huh7 cells
Assignment: determine reported CC50 for the given molecules.

In: # get_value(readout='CC50', item= CC(=O)c1sc(N2C(=O)C(O)=C(C(=O)c3cc4ccccc4o3)C2c2ccc(Oc3ccccc3)cc2)nc1C (stereo not drawn) )
Out: > 984 µM

In: # get_value(readout='CC50', item= CCOc1cc(C2C(C(=O)c3cc4ccccc4o3)=C(O)C(=O)N2c2nnc(SCc3ccccc3F)s2)ccc1O (stereo not drawn) )
Out: > 83 µM

In: # get_value(readout='CC50', item= COc1cc(C2C(C(=O)c3cc4ccccc4o3)=C(O)C(=O)N2c2nc(C)c(C(C)=O)s2)ccc1OCc1ccccc1 (stereo not drawn) )
Out: > 84 µM

###

Assignment: determine reported melting point for the given compounds.

In: # get_value(readout='melting point', item= CCOc1ccc2nc(N3C(=O)C(O)=C(C(=O)c4ccc(C)o4)C3c3cccs3)sc2c1 (centres unmarked) )
Out: 235 to 236 °C

In: # get_value(readout='melting point', item= COc1ccc2nc(N3C(=O)C(O)=C(C(=O)c4ccc(C)o4)C3c3ccccn3)sc2c1 (centres unmarked) )
Out: 240 to 241 °C

In: # get_value(readout='melting point', item= Cc1ccc(C(=O)C2=C(O)C(=O)N(c3nc4ccc(Cl)cc4s3)C2c2ccc(OCCO)cc2)o1 (centres unmarked) )
Out: 209 to 210 °C

In: # get_value(readout='melting point', item= Cc1ccc(C(=O)C2=C(O)C(=O)N(c3nc4ccc(Cl)cc4s3)C2c2cccc(Oc3ccccc3)c2)o1 (centres unmarked) )
Out: 226 to 227 °C

In: # get_value(readout='melting point', item= Cc1ccc(C(=O)C2=C(O)C(=O)N(c3nc4ccc(S(C)(=O)=O)cc4s3)C2C2CCCCC2)o1 (centres unmarked) )
Out: 208 to 209 °C

###

Assignment: determine reported melting point for the given molecules.

In: # get_value(readout='melting point', item= Cc1ccc(C(=O)C2=C(O)C(=O)N(c3nc(N4CCOCC4)c4nc[nH]c4n3)C2c2cccc([N+](=O)[O-])c2)o1 (stereo not drawn) )
Out: 280 to 282 °C

In: # get_value(readout='melting point', item= COc1cccc(C2C(C(=O)c3ccc(C)o3)=C(O)C(=O)N2c2nc3ccc(F)cc3s2)c1 (stereo not drawn) )
Out: 201 to 202 °C

In: # get_value(readout='melting point', item= CCOc1ccc2nc(N3C(=O)C(O)=C(C(=O)c4ccc(C)o4)C3c3ccc4ccccc4n3)sc2c1 (stereo not drawn) )
Out: 260 to 261 °C

In: # get_value(readout='melting point', item= Cc1cnc(N2C(=O)C(O)=C(C(=O)c3cc4ccccc4o3)C2c2ccc(OCc3ccccc3)cc2)s1 (stereo not drawn) )
Out: 241 to 243 °C

In: # get_value(readout='melting point', item= Cc1ccc(C(=O)C2=C(O)C(=O)N(c3nc4ccc(Cl)cc4s3)C2c2ccc(OCc3ccccc3)cc2)o1 (stereo not drawn) )
Out: 196 to 197 °C

In: # get_value(readout='melting point', item= Cc1ccc(C(=O)C2=C(O)C(=O)N(CCc3c[nH]c4ccccc34)C2c2ccc(Cl)cc2)o1 (stereo not drawn) )
Out: 165 to 166 °C

In: # get_value(readout='melting point', item= COc1cccc(C2C(C(=O)c3ccc(C)o3)=C(O)C(=O)N2c2nc3ccc(Cl)cc3s2)c1 (stereo not drawn) )
Out: 229 to 230 °C

In: # get_value(readout='melting point', item= Cc1ccc(C(=O)C2=C(O)C(=O)N(c3nc4c(Cl)cccc4s3)C2c2ccc(Oc3ccccc3)cc2)o1 (stereo not drawn) )
Out: 208 to 209 °C

In: # get_value(readout='melting point', item= O=C(C1=C(O)C(=O)N(c2nc3ccc(Cl)cc3s2)C1c1ccc(F)cc1)c1nccs1 (stereo not drawn) )
Out: 310 to 311 °C

In: # get_value(readout='melting point', item= CCOc1ccc2nc(N3C(=O)C(O)=C(C(=O)c4ccc(C)o4)C3c3cccc(O)c3)sc2c1 (stereo not drawn) )
Out: 254 to 255 °C

In: # get_value(readout='melting point', item= CCc1ccc2nc(N3C(=O)C(O)=C(C(=O)c4ccc(C)o4)C3c3ccc(F)cc3)sc2c1 (stereo not drawn) )
Out: 222 to 225 °C

In: # get_value(readout='melting point', item= Cc1ccc(C(=O)C2=C(O)C(=O)N(c3nc4ccc(F)cc4s3)C2c2cccc3ccccc23)o1 (stereo not drawn) )
Out: 251 to 252 °C

In: # get_value(readout='melting point', item= CCc1ccc2nc(N3C(=O)C(O)=C(C(=O)c4ccc(C)o4)C3c3ccccc3F)sc2c1 (stereo not drawn) )
Out: 165 to 169 °C

In: # get_value(readout='melting point', item= CCOc1ccc2nc(N3C(=O)C(O)=C(C(=O)c4ccc(C)o4)C3c3ccc(O)c(O)c3)sc2c1 (stereo not drawn) )
Out: 259 to 260 °C

In: # get_value(readout='melting point', item= Cc1ccc(C(=O)C2=C(O)C(=O)N(c3nc4c(Cl)cccc4s3)C2c2cccc(F)c2F)o1 (stereo not drawn) )
Out: 274 to 275 °C
